# assayed-system: Biosimilar (BS) bapineuzumab
# Sequence (chain, as listed by the source, chain 1 of 2): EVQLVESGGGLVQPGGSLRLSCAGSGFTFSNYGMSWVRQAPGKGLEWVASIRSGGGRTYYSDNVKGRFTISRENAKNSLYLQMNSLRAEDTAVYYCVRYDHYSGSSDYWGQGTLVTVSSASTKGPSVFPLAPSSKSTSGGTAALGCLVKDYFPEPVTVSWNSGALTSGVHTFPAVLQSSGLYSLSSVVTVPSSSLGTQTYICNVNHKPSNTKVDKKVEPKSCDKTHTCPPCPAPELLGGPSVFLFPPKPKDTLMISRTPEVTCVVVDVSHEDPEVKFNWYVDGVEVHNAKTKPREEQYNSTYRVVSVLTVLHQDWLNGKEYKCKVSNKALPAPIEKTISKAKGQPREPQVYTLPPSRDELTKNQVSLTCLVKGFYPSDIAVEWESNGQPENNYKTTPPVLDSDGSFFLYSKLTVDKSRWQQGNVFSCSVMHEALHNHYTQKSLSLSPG
# Sequence (chain, as listed by the source, chain 2 of 2): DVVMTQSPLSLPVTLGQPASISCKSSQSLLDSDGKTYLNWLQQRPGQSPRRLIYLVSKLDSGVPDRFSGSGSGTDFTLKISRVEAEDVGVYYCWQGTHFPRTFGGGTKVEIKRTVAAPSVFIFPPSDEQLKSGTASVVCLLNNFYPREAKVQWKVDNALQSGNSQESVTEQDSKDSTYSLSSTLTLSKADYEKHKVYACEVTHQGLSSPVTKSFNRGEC
# procedure-summary: MSD inhibition assay, abeta 1-28 coated plates
readout-type: IC50 (nM)
The reply should contain only the number, in nM.

Entry abeta 1-12 trimer construct, P05067 672-683; P05067 672-683; P05067 672-683 (modifications not checked) peptide: DAEFRHDSGYEVGGGGGGGGDAEFRHDSGYEVGGGGGGGGDAEFRHDSGYEV has what IC50?
10
